All values here come from ChEMBL document CHEMBL1158827.

The compounds below have reported IC50 for Xanthine dehydrogenase/oxidase (Homo sapiens).
Quantity name: IC50 (µM)

1. COc1cc(C[C@@H](CO)[C@H](CO)Cc2ccc(O)c(OC)c2)ccc1O [(+)-SECOISOLARICIRESINOL]; 213
2. COc1cc([C@H]2c3cc(O)c(OC)cc3C[C@@](O)(CO)[C@@H]2CO)ccc1O; 101
3. COc1cc(C[C@@H]2COC[C@@H]2C(O)c2ccc(O)c(OC)c2)ccc1O (stereo partly drawn); 111
